Consider the following compounds and their measured pIC50 readings.
Biological target: Human full-length Hsp90 (Homo sapiens)
Construct: E. coli expressed human full-length HSP90 protein, purified >95%; made in house; host or cells: E. coli
Test: Fluorescence polarization assay (competitive binding to HSP90, probe RBT0045864-FAM)
Conditions: fluorescence polarization assay, activity range; read-out: Hsp90 FP IC50
pIC50: −log10 of the molar value.

Here's what some known entries look like.
>  <compound>
CCNC(=O)c1cc2c(-c3cc(CNCc4ccc(S(N)(=O)=O)cc4)ccc3C)nc(N)nc2s1 [Example 207]

>  <pIC50>
> 5.00

$$$$
>  <compound>
CCOC(=O)c1cc2c(C(=O)c3ccccc3C)nc(N)nc2s1 [Example 311]

>  <pIC50>
> 5.00

$$$$
>  <compound>
NC(=O)[C@H](Cc1ccc(O)cc1)NC(=O)c1cc2c(-c3ccc(Cl)cc3Cl)nc(N)nc2s1 [Example 163]

>  <pIC50>
> 5.00

$$$$
>  <compound>
CCOC(=O)c1cc2c(-c3ccccn3)nc(N)nc2s1 [Example 104]

>  <pIC50>
< 5.00

$$$$

Data request, read-out pIC50, for C=C(c1ccc(F)cc1)c1nc(N)nc2sc(C(=O)OCC)cc12 [Example 277]
> 5.00

###

Listing of recorded IC50 by entry.
Target: Human full-length Hsp90 (Homo sapiens, UniProt P08238)
Construct: E. coli expressed human full-length HSP90 protein, purified >95%; made in house; host or cells: E. coli
Sequence (P08238 whole entry): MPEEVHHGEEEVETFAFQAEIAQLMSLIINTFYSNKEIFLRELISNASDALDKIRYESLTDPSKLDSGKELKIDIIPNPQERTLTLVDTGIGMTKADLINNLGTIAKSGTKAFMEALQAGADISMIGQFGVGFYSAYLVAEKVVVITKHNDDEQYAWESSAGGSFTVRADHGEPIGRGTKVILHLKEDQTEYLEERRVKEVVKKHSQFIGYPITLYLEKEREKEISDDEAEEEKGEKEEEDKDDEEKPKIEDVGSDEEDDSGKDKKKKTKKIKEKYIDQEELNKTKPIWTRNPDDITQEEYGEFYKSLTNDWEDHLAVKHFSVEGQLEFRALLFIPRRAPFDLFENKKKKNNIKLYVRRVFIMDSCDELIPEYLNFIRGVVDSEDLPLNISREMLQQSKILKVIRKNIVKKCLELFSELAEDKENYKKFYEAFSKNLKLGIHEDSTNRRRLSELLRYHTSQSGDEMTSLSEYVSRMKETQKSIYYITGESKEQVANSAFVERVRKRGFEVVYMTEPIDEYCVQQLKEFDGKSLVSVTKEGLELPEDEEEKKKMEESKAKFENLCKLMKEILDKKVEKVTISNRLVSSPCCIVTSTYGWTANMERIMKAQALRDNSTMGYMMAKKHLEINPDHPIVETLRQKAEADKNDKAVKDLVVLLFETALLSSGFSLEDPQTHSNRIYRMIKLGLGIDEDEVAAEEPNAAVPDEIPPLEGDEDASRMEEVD
Experiment: Fluorescence polarization assay (competitive binding to HSP90, probe RBT0045864-FAM)
Conditions: fluorescence polarization assay, activity range; read-out: Hsp90 FP IC50

Use these answered entries as a reference point.
>  <molecule>
CCCNCc1cc(-c2nc(N)nc3sc(C(=O)NCC)cc23)c(C)cc1C [Example 231]

>  <result>
< 10 µM

$$$$
>  <molecule>
NC(=O)[C@H](CO)NC(=O)c1cc2c(-c3ccc(Cl)cc3Cl)nc(N)nc2s1 [Example 162]

>  <result>
< 10 µM

$$$$
>  <molecule>
CCNC(=O)c1cc2c(-c3cc(OCCNC4CCCCC4)c(Cl)cc3Cl)nc(N)nc2s1 [Example 245]

>  <result>
< 10 µM

$$$$

Please find the next molecule below.
Value wanted: IC50 (Human full-length Hsp90 (Homo sapiens, UniProt P08238)) of entry Cc1ccc(-c2nc(N)nc3sc(S(=O)(=O)NC4CC4)cc23)c(C)c1 [Example 274]
< 10 µM

###

Biological target: Human full-length Hsp90 (Homo sapiens, UniProt P08238)
Construct: E. coli expressed human full-length HSP90 protein, purified >95%; made in house; host or cells: E. coli
Test: Fluorescence polarization assay (competitive binding to HSP90, probe RBT0045864-FAM)
Conditions: fluorescence polarization assay, activity range; read-out: Hsp90 FP IC50
pIC50: −log10 of the molar value.
Listing of recorded pIC50 by entry.

>  <molecule>
CCOC(=O)c1cc2c(-c3ccc(C#N)cc3)nc(N)nc2s1 [Example 16]

>  <testedOn>
Human full-length Hsp90 (Homo sapiens, UniProt P08238)

>  <result>
> 5.00

$$$$
>  <molecule>
CCOC(=O)c1cc2c(-c3ccc(OCC(=O)O)cc3C)nc(N)nc2s1 [Example 193]

>  <testedOn>
Human full-length Hsp90 (Homo sapiens, UniProt P08238)

>  <result>
< 5.00

$$$$
>  <molecule>
CCNC(=O)c1cc2c(-c3cc(OCC4CCCCN4C)c(Cl)cc3Cl)nc(N)nc2s1 (stereo not shown) [Example 273]

>  <testedOn>
Human full-length Hsp90 (Homo sapiens, UniProt P08238)

>  <result>
> 5.00

$$$$
>  <molecule>
CN1CCC(NC(=O)c2cc3c(-c4ccc(Cl)cc4Cl)nc(N)nc3s2)CC1 [Example 137]

>  <testedOn>
Human full-length Hsp90 (Homo sapiens, UniProt P08238)

>  <result>
> 5.00

$$$$
>  <molecule>
CCOC(=O)c1cc2c(-c3cc(OCc4ccccc4)c(Cl)cc3Cl)nc(N)nc2s1 [Example 239]

>  <testedOn>
Human full-length Hsp90 (Homo sapiens, UniProt P08238)

>  <result>
> 5.00

$$$$
>  <molecule>
CCC(C)NC(=O)c1cc2c(-c3ccccc3)nc(N)nc2s1 (stereo not shown) [Example 59]

>  <testedOn>
Human full-length Hsp90 (Homo sapiens, UniProt P08238)

>  <result>
< 5.00

$$$$
>  <molecule>
Nc1nc(-c2ccc(Cl)cc2Cl)c2cc(C(=O)NCC(F)(F)F)sc2n1 [Example 134]

>  <testedOn>
Human full-length Hsp90 (Homo sapiens, UniProt P08238)

>  <result>
> 5.00

$$$$
>  <molecule>
Nc1nc(-c2ccc(Cl)cc2Cl)c2cc(C(=O)NCCc3ccccn3)sc2n1 [Example 156]

>  <testedOn>
Human full-length Hsp90 (Homo sapiens, UniProt P08238)

>  <result>
> 5.00

$$$$
>  <molecule>
CN(C)CCCNC(=O)c1cc2c(-c3ccc(Cl)cc3Cl)nc(N)nc2s1 [Example 102]

>  <testedOn>
Human full-length Hsp90 (Homo sapiens, UniProt P08238)

>  <result>
> 5.00

$$$$
>  <molecule>
C[C@H](NC(=O)c1cc2c(-c3ccc(Cl)cc3Cl)nc(N)nc2s1)c1ccccc1 [Example 139]

>  <testedOn>
Human full-length Hsp90 (Homo sapiens, UniProt P08238)

>  <result>
> 5.00

$$$$

pIC50 lookup needed for CCCNCc1ccc(C)c(-c2nc(N)nc3sc(C(=O)NCC)cc23)c1 [Example 197] , thanks.
> 5.00

Entry under review: CCCNC(=O)c1ccc(C)c(-c2nc(N)nc3sc(C(=O)OCC)cc23)c1 [Example 181] . Reported pIC50?
> 5.00

Return reported pIC50; argument: CCOC(=O)c1cc2c(NC(C)c3ccccc3)nc(N)nc2s1 (stereo not shown) [Example 26]
< 5.00

###

Listing of entries alongside the reported pIC50.
Target: Human full-length Hsp90 (Homo sapiens, UniProt P08238)
Construct: E. coli expressed human full-length HSP90 protein, purified >95%; made in house; host or cells: E. coli
Experiment: Fluorescence polarization assay (competitive binding to HSP90, probe RBT0045864-FAM)
Settings: fluorescence polarization assay, activity range; read-out: Hsp90 FP IC50
pIC50: −log10 of the molar value.

>  <compound>
CCOC(=O)c1cc2c(-c3ccc(F)cc3)nc(N)nc2s1 [Example 10]

>  <result>
< 5.00

$$$$
>  <compound>
CCOC(=O)c1cc2c(-c3ccc(C)cc3Cl)nc(N)nc2s1 [Example 79]

>  <result>
> 5.00

$$$$
>  <compound>
CCNC(=O)c1cc2c(-c3cc(OCc4ccccn4)c(Cl)cc3Cl)nc(N)nc2s1 [Example 261]

>  <result>
> 5.00

$$$$
>  <compound>
CCNC(=O)c1cc2c(-c3cc(OCC(C)CN(C)C)c(Cl)cc3Cl)nc(N)nc2s1 (stereo not shown) [Example 256]

>  <result>
> 5.00

$$$$
>  <compound>
CCOC(=O)c1cc2c(-c3cccc4cccnc34)nc(N)nc2s1 [Example 100]

>  <result>
< 5.00

$$$$
>  <compound>
C[C@@H](NC(=O)c1cc2c(-c3ccc(Cl)cc3Cl)nc(N)nc2s1)c1ccccc1 [Example 138]

>  <result>
> 5.00

$$$$

Form field - read-out: pIC50; system: Human full-length Hsp90 (Homo sapiens, UniProt P08238); submitted item: CCOC(=O)c1cc2c(-c3ccc(Cl)cc3C)nc(N)nc2s1 [Example 3]
> 5.00

Give pIC50 (Human full-length Hsp90 (Homo sapiens, UniProt P08238)) of the following compound: CCOC(=O)c1cc2c(-c3ccc(OC(C)C)cc3)nc(N)nc2s1 [Example 5]
< 5.00

Checklist item: pIC50 tested on Human full-length Hsp90 (Homo sapiens, UniProt P08238), entry CCNC(=O)c1cc2c(-c3cccc(OCCN(CC)CC)c3)nc(N)nc2s1 [Example 260] , value?
> 5.00

// map CCNC(=O)c1cc2c(-c3cc(CNC4CCCC4)ccc3C)nc(N)nc2s1 [Example 199] to recorded pIC50 (system: Human full-length Hsp90 (Homo sapiens, UniProt P08238))
> 5.00

# query: pIC50 | item CCNC(=O)c1cc2c(-c3cccc(OCc4ccccc4)c3)nc(N)nc2s1 [Example 243] | system: Human full-length Hsp90 (Homo sapiens, UniProt P08238)
> 5.00

Human full-length Hsp90 (Homo sapiens, UniProt P08238) / pIC50 / CCOC(=O)c1cc2c(-c3cccc(C(N)=O)c3)nc(N)nc2s1 [Example 40] : value?
< 5.00

Lab request: please report pIC50 under test system Human full-length Hsp90 (Homo sapiens, UniProt P08238) for CC(C)NC(=O)c1cc2c(-c3cc(OCc4ccccc4)c(Cl)cc3Cl)nc(N)nc2s1 [Example 242]
> 5.00
